B1: TRIB1 (parent)
chain: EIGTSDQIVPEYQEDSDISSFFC

Variants of: B1
Experiment: protein stability index of a GFP-peptide fusion (GPS, HEK-293T) (PSI 1-6); higher = more stable;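 also: lentivirally expressed fusions sorted by FACS into six bins by GFP to DsRed ratio, PSI derived from sequencing read proportions per bin multiplied by bin number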
Settings: c terminus: native
endpoint: protein stability index
Just the number.

Request: Answer with reported protein stability index of "T4A"
Response: 3.23

Request: Answer with reported protein stability index of "I2L"
Response: 3.06

Request: Answer with reported protein stability index of "E1D"
Response: 2.57

Request: Answer with reported protein stability index of "G3D"
Response: 2.55

Request: Answer with reported protein stability index of "D15G"
Response: 3.71

Request: Answer with reported protein stability index of "P10S"
Response: 5.59

Request: Answer with reported protein stability index of "D17E"
Response: 2.61

Request: Answer with reported protein stability index of "C23I"
Response: 2.67

Request: Answer with reported protein stability index of "Q7T"
Response: 5.64

Request: Answer with reported protein stability index of "Y12F"
Response: 3.07

More entries:
Request: Answer with reported protein stability index of "S16C"
Response: 2.41

Reference source for all entries: the supplement of paper PMC10567573
